System: A549
experimental-protocol: Cytotoxicity against human A549 cells after 72 hrs by SRB assay
Assay type: functional, cell-based
experimental-conditions: A549, 72 h
Values of IC50 strictly less than 8 µM map to Fulfilled, and values of at least 8 µM map to Not fulfilled.

Please review the following examples before continuing.
molecule: CC(C)(C)OC(=O)N1C(=O)C2=C[C@@]3(C)OO[C@]2(CC1c1ccc(Cl)cc1)OC3c1ccccc1 (some centres undefined)
label: Fulfilled
//
molecule: COc1ccc(C2C[C@]34OO[C@](C)(C=C3C(=O)O2)C(c2ccc([N+](=O)[O-])cc2)O4)cc1 (some centres undefined)
label: Not fulfilled
//
molecule: COc1ccc(C2C[C@]34OO[C@](C)(C=C3C(=O)O2)C(c2ccccc2)O4)cc1OC (some centres undefined)
label: Not fulfilled
//
molecule: CC(C)(C)OC(=O)N1C(=O)C2=C[C@@]3(C)OO[C@]2(CC1c1ccc(Cl)cc1)OC3c1ccc([N+](=O)[O-])cc1 (some centres undefined)
label: Fulfilled
//
molecule: C[C@]12C=C3C(=O)OC(c4ccccc4Br)C[C@@]3(OO1)OC2c1ccc([N+](=O)[O-])cc1 (some centres undefined)
label: Not fulfilled
//
molecule: COc1ccc(C2O[C@]34CC(c5ccc(Cl)cc5)N(C(=O)OC(C)(C)C)C(=O)C3=C[C@@]2(C)OO4)cc1 (some centres undefined)
label: Fulfilled
//
molecule: CC1O[C@]23CC(c4ccc(C(F)(F)F)cc4)OC(=O)C2=C[C@@]1(C)OO3 (some centres undefined)
label: Not fulfilled
//
molecule: COc1ccc(C2O[C@]34CC(c5ccc(F)cc5)OC(=O)C3=C[C@@]2(C)OO4)cc1 (some centres undefined)
label: Not fulfilled

Ask | Hello, is IC50 of the following molecule strictly smaller than 8 µM? C[C@]12C=C3C(=O)OC(c4ccc(C(F)(F)F)cc4)C[C@@]3(OO1)OC2c1ccccc1 (some centres undefined)
Reply | Not fulfilled

Ask | Hello, is IC50 of the following molecule strictly smaller than 8 µM? CC1O[C@]23CC(c4ccc(Br)cc4)OC(=O)C2=C[C@@]1(C)OO3 (some centres undefined)
Reply | Not fulfilled

Ask | Hello, is IC50 of the following molecule strictly smaller than 8 µM? C[C@]12C=C3C(=O)OC(c4ccc(Cl)cc4)C[C@@]3(OO1)OC2c1ccc([N+](=O)[O-])cc1 (some centres undefined)
Reply | Not fulfilled

Ask | Hello, is IC50 of the following molecule strictly smaller than 8 µM? COc1ccc(C2O[C@]34CC(c5cccc(Cl)c5)OC(=O)C3=C[C@@]2(C)OO4)cc1 (some centres undefined)
Reply | Not fulfilled

Ask | Hello, is IC50 of the following molecule strictly smaller than 8 µM? COc1ccc(C2C[C@]34OO[C@](C)(C=C3C(=O)O2)C(c2ccc([N+](=O)[O-])cc2)O4)cc1OC (some centres undefined)
Reply | Fulfilled

Ask | Hello, is IC50 of the following molecule strictly smaller than 8 µM? CC1O[C@]23CC(c4ccc(Cl)cc4)N(C(=O)OC(C)(C)C)C(=O)C2=C[C@@]1(C)OO3 (some centres undefined)
Reply | Fulfilled
